Give measured pKi for each item. Keep answers brief.
- assayed system: 5-HT1A receptor (Homo sapiens, UniProt P08908)
- assay details: 5-HT1A receptor affinity: displacement of [3H] 8-OH-DPAT
- Type: binding
- Design: expressed in transfected cells
- experimental context: displacement of [3H] 8-OH-DPAT; CHO cells stably transfected with human 5-HT1A receptors; read-out: 5-HT1A Receptor Affinity Ki
Give bare numbers, as −log10 of the molar value.

{"compound": "N#Cc1ccc2[nH]cc(CCCN(CC3CC3)[C@H]3COc4c(F)ccc(C(N)=O)c4C3)c2c1 [Compound 98b]", "reported result": 8.17}

Required: pKi, one value per compound below.
1. CNC(=O)c1ccc(F)c2c1C[C@@H](N(CCCCc1c[nH]c3ccc(F)cc13)C1CCC1)CO2 [Compound 145b]
2. CCCCN(CCCc1coc2c(OC)cccc12)C1COc2c(F)ccc(C(N)=O)c2C1 (stereo not drawn) [Compound 166]
3. CCCN(CCc1c[nH]c2ccc(F)cc12)C1CCc2cccc(OC)c2C1 (stereo not drawn) [Compound 48]
4. NC(=O)c1ccc(Cl)c2c1CC(N(CCCc1c[nH]c3ccc(F)cc13)C1CCC1)CO2 (stereo not drawn) [Compound 7]
5. CCCN(CCCc1c[nH]c2ccc(F)cc12)C1CCc2c(F)ccc(OC)c2C1 (single isomer, unassigned; (-)) [Compound 51b]
6. COc1cccc2c1CC(N(CCCc1c[nH]c3ccc(C#N)cc13)C1CCC1)CO2 (stereo not drawn) [Compound 46]
7. COc1cccc2c1CC(N(CCCCc1c[nH]c3ccc(F)cc13)C1CCC1)CO2 (stereo not drawn) [Compound 36]
8. COc1ccc2[nH]cc(CCCNC3COc4c(F)ccc(C(N)=O)c4C3)c2c1 (stereo not drawn) [Compound 104]

Solution:
1. 8.20
2. 7.85
3. 8.22
4. 8.21
5. 7.85
6. 7.84
7. 7.93
8. 7.78

----------
- assayed system: 5-HT1A receptor (Homo sapiens)
- Sequence (P08908 1-422): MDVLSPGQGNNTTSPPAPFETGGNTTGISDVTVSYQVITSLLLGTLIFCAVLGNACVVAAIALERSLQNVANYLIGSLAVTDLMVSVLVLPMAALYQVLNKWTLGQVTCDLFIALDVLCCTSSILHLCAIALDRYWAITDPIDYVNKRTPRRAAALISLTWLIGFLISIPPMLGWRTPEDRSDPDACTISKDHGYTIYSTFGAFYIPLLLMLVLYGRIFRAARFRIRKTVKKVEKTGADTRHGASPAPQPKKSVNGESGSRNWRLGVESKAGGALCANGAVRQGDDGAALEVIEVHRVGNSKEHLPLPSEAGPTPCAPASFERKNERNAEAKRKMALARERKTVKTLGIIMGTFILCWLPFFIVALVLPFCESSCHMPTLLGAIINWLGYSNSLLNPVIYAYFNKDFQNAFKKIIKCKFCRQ
- assay details: cAMP accumulation assay, 5-HT1A function
- Type: cell-based
- experimental context: in brackets after EC50 or IC50; read-out: 5-HT1A Function cAMP (Emax)
Please provide measured Emax for the entries that follow.
Numbers only, in %.

# example entries with known answers
{"compound": "COc1cccc2c1CC(N(CCCc1c[nH]c3ccc(F)cc13)CC1CCC1)CO2 (centres unmarked)", "measurement name": "Emax", "readout unit": "%", "reported result": 72.5}
{"compound": "CCCN(CCCCc1c[nH]c2ccc(F)cc12)C1COc2c(F)ccc(C(N)=O)c2C1 (centres unmarked)", "measurement name": "Emax", "readout unit": "%", "reported result": 0}
{"compound": "COC(=O)c1ccc(F)c2c1C[C@@H](NCCCCc1c[nH]c3ccc(F)cc13)CO2 [Compound 57b]", "measurement name": "Emax", "readout unit": "%", "reported result": 93}
{"compound": "CCCN(CCCc1c[nH]c2c(Cl)cccc12)C1COc2c(F)ccc(C(N)=O)c2C1 (centres unmarked)", "measurement name": "Emax", "readout unit": "%", "reported result": 91}

Then there is this compound:
Exercise: What value of Emax has been reported for the following compound? CCN(CCc1c[nH]c2ccc(F)cc12)C1COc2c(F)ccc(C(N)=O)c2C1 (centres unmarked)
Solution: 0

----------
Please respond with reported log10(EC50) for every item in the list.
- assayed system: 5-HT1A receptor (Homo sapiens)
- Sequence (P08908 1-422): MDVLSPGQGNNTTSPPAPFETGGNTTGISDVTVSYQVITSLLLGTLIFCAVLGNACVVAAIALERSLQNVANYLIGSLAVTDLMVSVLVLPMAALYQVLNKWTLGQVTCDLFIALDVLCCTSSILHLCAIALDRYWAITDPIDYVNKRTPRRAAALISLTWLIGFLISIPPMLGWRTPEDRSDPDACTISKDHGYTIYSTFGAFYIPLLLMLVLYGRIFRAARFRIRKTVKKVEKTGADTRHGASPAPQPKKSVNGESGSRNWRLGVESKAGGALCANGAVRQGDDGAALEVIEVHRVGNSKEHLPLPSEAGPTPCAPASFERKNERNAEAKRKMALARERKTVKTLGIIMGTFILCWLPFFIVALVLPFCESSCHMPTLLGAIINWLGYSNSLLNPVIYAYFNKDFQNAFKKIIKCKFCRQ
- assay details: cAMP accumulation assay, 5-HT1A function
- experimental context: cells marked EC50 (agonist)
Parameter value (number): base-10 log of EC50 in nM.

In the examples that follow, each entry is paired with its recorded log10(EC50).
{"compound": "COc1cccc2c1CC(N(CCCc1c[nH]c3ccc(F)cc13)C1CCCC1)CO2 (centres unmarked)", "reported result": 2.03}
{"compound": "COc1cccc2c1CC(N(CCCc1c[nH]c3ccccc13)C1CCC1)CO2 (centres unmarked)", "reported result": 1.85}

Quick batch: log10(EC50) for everything below.
1. CCCN(CCCc1csc2ccc(F)cc12)C1COc2cccc(OC)c2C1 (centres unmarked)
2. CCN(CCCCn1ccc2ccc(F)cc21)C1COc2c(F)ccc(C(N)=O)c2C1 (centres unmarked)
3. NC(=O)c1ccc(F)c2c1CC(NCCCc1c[nH]c3ccc(F)cc13)CO2 (single isomer, unassigned; (+)) [Compound 1a]
4. NC(=O)c1cccc2c1C[C@H](NCCCc1c[nH]c3ccc(F)cc13)CO2 [Compound 133a]
5. CCN(CCCCc1c[nH]c2ccc(F)cc12)C1COc2cccc(OC)c2C1 (centres unmarked)

Solution:
1. 1.91
2. 2.07
3. 1.98
4. 2.11
5. 1.93

Can you give me log10(EC50) for all of these, one by one?
1. NC(=O)c1ccc(F)c2c1CC(N(CCCCn1ccc3ccc(F)cc31)CC1CC1)CO2 (centres unmarked)
2. NC(=O)c1ccc(F)c2c1CC(N(CCCCn1ccc3cc(F)ccc31)CC1CC1)CO2 (centres unmarked)
3. O=C(NCC1CC1)c1cccc2c1CC(N(CCCc1c[nH]c3c(F)cc(F)cc13)C1CCC1)CO2 (centres unmarked)
4. CCCN(CCCc1c[nH]c2ccc(F)cc12)C1COc2c(F)ccc(C(N)=O)c2C1 (centres unmarked) [Compound 2]
5. CCN(CCCCn1ccc2cccc(F)c21)C1COc2c(F)ccc(C(N)=O)c2C1 (centres unmarked)
6. COC(=O)c1cccc2c1CC(NCCCc1c[nH]c3c(F)cc(F)cc13)CO2 (centres unmarked)

Solution:
1.34
1.87
3.70
1.02
2.46
2.44

----------
- assayed system: cloned human 5-HT1A receptors (Homo sapiens, UniProt P08908)
- Construct: expressed in transfected cells
- assay details: 35S-GTPγS binding assay, 5-HT1A function
- Type: biochemical
- experimental context: maximum inhibitory effect, in brackets after IC50; read-out: 5-HT1A Function GTPγS (Imax)
measurement name: Emax (%)
Give bare numbers, in %.

Below, 2 compounds whose answers are already recorded.
{"compound": "NC(=O)c1ccc(F)c2c1C[C@@H](N(CC1CC1)CC1CCc3[nH]c4ccc(F)cc4c3C1)CO2 (single isomer, unassigned; (-)) [Compound 178a]", "measurement name": "Emax", "readout unit": "%", "reported result": 100}
{"compound": "C[C@@H](CCN(C1CCC1)[C@H]1COc2c(F)ccc(C(N)=O)c2C1)c1c[nH]c2ccc(F)cc12 [Compound 153a]", "measurement name": "Emax", "readout unit": "%", "reported result": 100}

# evaluate next
Exercise: Reported Emax, compound COc1cccc2c1CC(N(CCCc1c[nH]c3ccc(F)cc13)C(C)C)CO2 (stereo not drawn) : ____
Solution: 46

----------
- assayed system: 5-HT1A receptor (Homo sapiens, UniProt P08908)
- assay details: 5-HT1A receptor affinity: displacement of [3H] 8-OH-DPAT
- Type: binding
- Set-up: expressed in transfected cells
- experimental context: displacement of [3H] 8-OH-DPAT; CHO cells stably transfected with human 5-HT1A receptors; read-out: 5-HT1A Receptor Affinity Ki
Param label: returns met when Ki < 9 nM, returns not met otherwise, including exact equality.

Below are worked cases with known answers.
{"compound": "CCN(CCCc1c[nH]c2ccc(F)cc12)C1COc2c(F)ccc(C(N)=O)c2C1 (single isomer, unassigned; (+)) [Compound 3b]", "assayed system": "5-HT1A receptor (Homo sapiens, UniProt P08908)", "group": "not met"}
{"compound": "NC(=O)c1cccc2c1CC(N(CCCc1c[nH]c3ccc(F)cc13)C1CCC1)CO2 (single isomer, unassigned; (-)) [Compound 134a]", "assayed system": "5-HT1A receptor (Homo sapiens, UniProt P08908)", "group": "met"}
{"compound": "CCN(CCCCc1c[nH]c2ccc(F)cc12)C1COc2c(C(N)=O)ccc(F)c2C1 (stereo not shown)", "assayed system": "5-HT1A receptor (Homo sapiens, UniProt P08908)", "group": "not met"}
{"compound": "CCCN(CCCc1c[nH]c2ccc(F)cc12)[C@@H]1COc2c(F)ccc(OC)c2C1", "assayed system": "5-HT1A receptor (Homo sapiens, UniProt P08908)", "group": "not met"}
{"compound": "NC(=O)c1ccc(F)c2c1CC(NCCCc1c[nH]c3ccc(F)cc13)CO2 (single isomer, unassigned; (+)) [Compound 1a]", "assayed system": "5-HT1A receptor (Homo sapiens, UniProt P08908)", "group": "not met"}

Exercise: Lab log: compare recorded Ki with 9 nM; is it strictly lower for NC(=O)c1ccc(F)c2c1OCC(N(CCCc1c[nH]c3c(F)cc(F)cc13)CC1CC1)C2 (stereo not shown) ?
Solution: not met

Exercise: Now this one: CCN(CCCc1coc2ccccc12)C1COc2cccc(OC)c2C1 (stereo not shown)
Solution: met

Exercise: Now consider NC(=O)c1ccc(F)c2c1CC(N(CCCCn1ccc3cccc(F)c31)C1CCC1)CO2 (stereo not shown) and answer again.
Solution: not met

Exercise: Try CCN(CCCCc1c[nH]c2ccc(F)cc12)C1COc2c(F)ccc(C(N)=O)c2C1 (stereo not shown) next.
Solution: not met

Exercise: // same read-out, input: NC(=O)c1cccc2c1CC(N(CCCc1c[nH]c3ccc(F)cc13)C1CCC1)CO2 (stereo not shown) [Compound 134]
Solution: met

Exercise: And what about the compound CCCN(CCCc1c[nH]c2ccc(F)cc12)C1COc2c(F)ccc(C(N)=O)c2C1 (stereo not shown) [Compound 2] ?
Solution: met

Exercise: Item: NC(=O)c1ccc(F)c2c1CC(N(CCCCn1ccc3c(F)cccc31)CC1CC1)CO2 (stereo not shown)
Solution: not met

Exercise: What do we get for CCCN(C1COc2cccc(OC)c2C1)[C@H]1CC[C@@H](c2c[nH]c3ccc(F)cc32)CC1 (relative stereo) ?
Solution: not met

Exercise: And what about the compound "NC(=O)c1ccc(F)c2c1C[C@@H](N(CCCc1c[nH]c3c(F)cc(F)cc13)CC1CC1)CO2" ?
Solution: met

Exercise: Same question for NC(=O)c1ccc(F)c2c1C[C@@H](N(CC1CC1)CC1CCc3[nH]c4ccc(F)cc4c3C1)CO2 (single isomer, unassigned; (+)) [Compound 178b] please.
Solution: not met

Exercise: Subsequent entry: CCCN(CCc1coc2c(OC)cccc12)C1COc2c(F)ccc(C(N)=O)c2C1 (stereo not shown)
Solution: not met

Exercise: Now try CNC(=O)c1ccc(F)c2c1CC(N(CCc1c[nH]c3ccc(F)cc13)C1CCC1)CO2 (stereo not shown) .
Solution: met

Exercise: What would you report for NC(=O)c1cccc2c1CC(N(CCCc1c[nH]c3ccc(F)cc13)C1CCC1)CO2 (single isomer, unassigned; (+)) [Compound 134b] ?
Solution: not met

Exercise: Also NC(=O)c1ccc(F)c2c1OCC(N(CCCc1c[nH]c3ccc(F)cc13)CC1CC1)C2 (stereo not shown) ?
Solution: not met

Exercise: Follow-up entry: CCCN(CC1CCc2[nH]c3ccc(F)cc3c2C1)[C@H]1COc2c(F)ccc(C(N)=O)c2C1 (single isomer, unassigned; (+)) [Compound 177b]
Solution: met

Exercise: And for NC(=O)c1cccc2c1C[C@H](NCCCc1c[nH]c3ccc(F)cc13)CO2 [Compound 133a] ?
Solution: not met
